- Tested on: WPMY1-ACTB-RAB5A
- experiment.description: phenotypically active (imaging signature differs from DMSO and reproducible) at any of 0.3-9 uM (binary (1 = active, 0 = inactive)); higher = active
- measurement.context: treatment time: 24 h
Measured phenotypically active, listed per entry.
Give the value as a plain number.

The cases that follow already have their phenotypically active on record.
1. O=C(O)CCCc1ccccc1 [Sodium 4-Phenylbutyrate] :: 0
2. O=C1Cc2c([nH]c3ccc(Br)cc23)-c2ccccc2N1 :: 1
3. Brc1c(NC2=NCCN2)ccc2nccnc12 :: 0
4. O=C(CCCCCN1C(=O)c2cccc3cccc(c23)C1=O)NO :: 1
5. CN(C)CCc1c[nH]c2ccc(C[C@H]3COC(=O)N3)cc12 :: 0

Prompt line: Which measured phenotypically active value corresponds to COc1ccc(Cl)cc1NC(=O)Nc1cc(C)nc2ccccc12 ?
Response line: 0

Prompt line: Which measured phenotypically active value corresponds to CCc1cc(-c2n[nH]c(C)c2-c2ccc3c(c2)OCCO3)c(O)cc1O ?
Response line: 1
